# System: OVCAR-3 ovarian
# method: NCI tumour cell line growth inhibition, 48 h
Recorded measurements of log10(TGI), one per entry
quantity-kind: log10(TGI) (log10 of the value in µM)

[[record]]
compound = "O=C1/C(=C\\c2ccc([N+](=O)[O-])o2)SC2N=C(COc3ccc(Cl)cc3)NN12 (stereo not given)"
result = 1.28

[[record]]
compound = "Cc1sc2nc(NCCc3c[nH]c4ccc(Cl)cc34)[nH]c(=O)c2c1C"
result = 1.10

[[record]]
compound = "OCCCCC#Cc1ccccc1C#Cc1cccc(O)c1"
result = 1.64

[[record]]
compound = "CN(C)Cc1c[nH]c2c1C(=O)c1c(c(O)c3ccccc3c1O)C2=O"
result = 1.14

[[record]]
compound = "c1cc(-c2ncc(-c3ccc4c(c3)CCCO4)o2)ccn1"
result = 1.48

[[record]]
compound = "C#C[C@]1(O)CC[C@H]2[C@@H]3CC=C4c5sc(Nc6ccccc6)nc5CC[C@]4(C)[C@H]3CC[C@@]21C"
result = 0.73

[[record]]
compound = "CC(=O)Oc1ccc(Nc2c3ccccc3nc3ccccc23)cc1"
result = 0.81

[[record]]
compound = "CCCCCC(C[N+]1(C)CCOCC1)C(=O)/C=C/c1ccccc1 (stereo not given)"
result = 1.44

[[record]]
compound = "CN1CCc2c(Sc3ccc(C(=O)NO)cc3)c3ccccc3n2C1"
result = 0.83

[[record]]
compound = "COc1ccc(C2C(C#N)=C(N)OC3=C2COc2ccc(F)cc23)cc1OC (stereo not given)"
result = 1.64

[[record]]
compound = "O=C1c2ccn(CCCCNC(CO)(CO)CO)c2C(=O)c2c1c(O)c1ccccc1c2O"
result = -0.41

[[record]]
compound = "O/N=C\\c1c(O)ccc2ccccc12"
result = 1.82

[[record]]
compound = "COc1ccc(CCNC2=CC(=O)c3ncccc3C2=O)cc1OC"
result = 0.71

[[record]]
compound = "O=C(O)c1ccccc1-c1ccccc1C(=O)Nc1ccc2c(c1)Cc1cc(F)ccc1-2"
result = 1.66

[[record]]
compound = "Nc1ccc(C(=O)NN2C(=O)C(Cl)C2c2ccccc2Cl)cc1 (stereo not given)"
result = 1.43

[[record]]
compound = "CO[C@H]1[C@@H](O)[C@@H](C)O[C@@H](O[C@H]2CC[C@@]3(C)[C@H](CC[C@@H]4[C@@H]3CC[C@]3(C)[C@@H](C5=CC(=O)OC5)[C@@H](OC(C)=O)C[C@]43O)C2)[C@@H]1O"
result = -1.04

[[record]]
compound = "CCOC(=O)CCc1c(C)c2c(OC(C)=O)cc(OC(C)=O)cc2oc1=O"
result = 1.92

[[record]]
compound = "CC1=C(Br)C(Br)=C(C)S1=O"
result = 1.38

[[record]]
compound = "COc1cc(NC(C)CCCN)c2nccc(C)c2c1OC (stereo not given)"
result = 1.00

[[record]]
compound = "CC1=CC(C2/C(=N/O)C=C(C)CC2(C)C)C(O)C(C)(C)C1 (stereo not given)"
result = 1.37

[[record]]
compound = "COc1cc2cn3c4ccc(O)cc4[nH]c(=O)c3c2cc1OC"
result = -0.67

[[record]]
compound = "Cc1[nH][nH]c(=O)c1C=Nc1ccc(-c2nc3ccccc3[nH]2)cc1"
result = 1.56


====

# Tested on: EKVX NSCLC
# method: NCI tumour cell line growth inhibition, 48 h; in the data active means GI50 below about 0.43 µM; inactive means the rest
Outcome codes: active, inactive

[[record]]
molecule = "C=C1C(=O)O[C@H]2[C@H]1[C@@H](OC(=O)C=C(C)C)CC1=C[C@@H](C[C@@]3(C)O[C@@H]23)OC1=O"
class_label = "inactive"

[[record]]
molecule = "NC1CCCC[C@H]1N.N[C@@H]1CCCC[C@@H]1N.O=C(P(=O)([O-])[O-])P(=O)([O-])[O-].[Pt+4].[Pt+4]"
class_label = "inactive"

[[record]]
molecule = "COC(=O)[C@@H](NC(=O)[C@@H](OC)[C@@H]1Cc2cc3cc(OC4CC(OC5CC(O)C(O)C(C)O5)C(O)C(C)O4)c(C)c(O)c3c(O)c2C(=O)[C@H]1OC1CC(OC2CC(OC3CC(C)(O)C(O)C(C)O3)C(O)C(C)O2)C(O)C(C)O1)C(C)C (stereo partly drawn)"
class_label = "active"

[[record]]
molecule = "CC(=O)Oc1ccc(Nc2c3ccccc3nc3ccccc23)cc1"
class_label = "inactive"

[[record]]
molecule = "CCN1C(=O)N(CC)C2C1NC(=S)N2/N=C/C=C/c1cccs1 (stereo not drawn)"
class_label = "inactive"

[[record]]
molecule = "Nc1nc(Nc2ccccc2)c2ncn(Cc3cc4c(cc3Br)OCO4)c2n1"
class_label = "active"

[[record]]
molecule = "COc1ccc(-c2cc(-c3cccn3C)c(C#N)c(N)n2)cc1OC"
class_label = "inactive"

[[record]]
molecule = "Cc1cn2c(/C=C3/C(=O)Nc4ccccc43)c(-c3ccc(Cl)cc3)nc2s1"
class_label = "inactive"


====

# Test system: MDA-MB-435
Outcome codes: active, inactive

[[record]]
molecule = "COC(=O)[C@@H](NC(=O)[C@@H](OC)[C@@H]1Cc2cc3cc(OC4CC(OC5CC(O)C(O)C(C)O5)C(O)C(C)O4)c(C)c(O)c3c(O)c2C(=O)[C@H]1OC1CC(OC2CC(OC3CC(C)(O)C(O)C(C)O3)C(O)C(C)O2)C(O)C(C)O1)C(C)C (stereo not given in full)"
class_label = "active"

[[record]]
molecule = "Cc1n(Cc2ccc3ccccc3c2)cc[n+]1Cc1ccc2ccccc2c1"
class_label = "inactive"

[[record]]
molecule = "O=C1/C(=C\\c2cccn2Cc2ccccc2)c2ccccc2N1c1c(Cl)cccc1Cl"
class_label = "inactive"

[[record]]
molecule = "COc1ccc(CNc2c3ccccc3nc3ccccc23)cc1OC"
class_label = "inactive"

[[record]]
molecule = "O=C(CN(C1CCCCC1)C1CCCCC1)Nc1ccc(S(=O)(=O)c2ccc(NC(=O)CN(C3CCCCC3)C3CCCCC3)cc2)cc1"
class_label = "inactive"

[[record]]
molecule = "Cc1[nH]n(-c2cccc(Cl)c2)c(=O)c1/C=C1\\C=Nc2ccc(Br)cc21"
class_label = "inactive"

[[record]]
molecule = "COc1cc(/C=C2\\C(=O)Nc3ccc(F)cc32)cc(OC)c1OC"
class_label = "inactive"

[[record]]
molecule = "Cc1cn2c(/C=C3/C(=O)Nc4ccccc43)c(-c3ccc(Cl)cc3)nc2s1"
class_label = "inactive"

[[record]]
molecule = "CC(=O)Oc1ccc(Nc2c3ccccc3nc3ccccc23)cc1"
class_label = "inactive"

[[record]]
molecule = "CC(=O)Oc1ccccc1C(=O)N=C1[Se]CCN1C(=O)c1ccccc1OC(C)=O"
class_label = "inactive"

[[record]]
molecule = "Nc1c(C(=O)N/N=C/c2ccc(-c3ccc(Cl)cc3)o2)cnn1-c1ccnc2c(C(F)(F)F)cccc12"
class_label = "inactive"

[[record]]
molecule = "CCN(CC)CCOc1ccc(/C(=C(\\C)c2ccc(F)c(OC)c2)c2ccc(Cl)cc2)cc1"
class_label = "inactive"

[[record]]
molecule = "Cc1[nH][nH]c(=O)c1C=Nc1ccc(-c2nc3ccccc3[nH]2)cc1"
class_label = "inactive"

[[record]]
molecule = "CCN(CC)CC(C)(C)C(=O)/C=C/c1ccc(Cl)c(Cl)c1"
class_label = "inactive"

[[record]]
molecule = "CC(=O)O[C@@H]1C[C@]2(C(C)C)O[C@@]1(C)[C@@H]1CCC(C)=C1[C@@H]2OC(=O)/C=C/c1ccccc1"
class_label = "inactive"


====

# Test system: OVCAR-5 ovarian
# method: NCI tumour cell line growth inhibition, 48 h; in the data active = GI50 below about 0.43 µM; inactive = the rest
Outcome codes: true for active, false for inactive

[[record]]
compound = "Nc1c(C(=O)N/N=C/c2ccc(-c3ccc(Cl)cc3)o2)cnn1-c1ccnc2c(C(F)(F)F)cccc12"
class_label = "false"

[[record]]
compound = "CC(=O)Oc1ccccc1C(=O)N=C1[Se]CCCN1C(=O)c1ccccc1OC(C)=O"
class_label = "false"

[[record]]
compound = "COc1ccc(-n2cc(-c3ccc(Cl)c(Cl)c3)nc2SCc2cccc(C#N)c2)cc1"
class_label = "false"

[[record]]
compound = "COC(=O)[C@@H](NC(=O)[C@@H](OC)[C@@H]1Cc2cc3cc(OC4CC(OC5CC(O)C(O)C(C)O5)C(O)C(C)O4)c(C)c(O)c3c(O)c2C(=O)[C@H]1OC1CC(OC2CC(OC3CC(C)(O)C(O)C(C)O3)C(O)C(C)O2)C(O)C(C)O1)C(C)C (stereo not given in full)"
class_label = "true"

[[record]]
compound = "Nc1ccncc1/C=C1/C(=O)Nc2ccccc21"
class_label = "false"


====

# Test system: LOX IMVI melanoma
# method: NCI tumour cell line growth inhibition, 48 h
quantity-kind: TGI

[[record]]
compound = "Cc1[nH][nH]c(=O)c1C=Nc1ccc(-c2nc3ccccc3[nH]2)cc1"
result = "30.5 µM"

[[record]]
compound = "O=C(Nc1cccc(Cl)c1)c1cc2ccccc2cc1O"
result = "> 100 µM"

[[record]]
compound = "O=C(Nc1ccc([N+](=O)[O-])cc1)C1C(=O)C(=O)N(c2ccc([N+](=O)[O-])cc2)C1=O (stereo unspecified)"
result = "30.3 µM"

[[record]]
compound = "CCOC(=O)N1CCN(C(=O)c2ccc(C(F)(F)F)nc2Nc2cc(Cl)ccc2C)CC1"
result = "> 100 µM"

[[record]]
compound = "CN=NN(C)C(=O)NC"
result = "> 100 µM"

[[record]]
compound = "CC1(C#N)CC(C)(C)C(/C=C2/CC(C)(C)C(/C=C3/OC(=N)CC3(C)C)=N2)=N1 (stereo unspecified)"
result = "> 100 µM"

[[record]]
compound = "CN(C)C1=Nc2ccccc2C(=S)N2CSCC12 (stereo unspecified)"
result = "> 100 µM"

[[record]]
compound = "CCN(CC)c1ccc2cc(-c3nnc(-c4ccccc4)o3)c(=O)oc2c1"
result = "> 100 µM"

[[record]]
compound = "NS(=O)(=O)c1ccc(-n2c(-c3cccs3)nc3ccc(I)cc3c2=O)cc1"
result = "37 µM"

[[record]]
compound = "O=C(CCCN1CC=C(n2c(=O)[nH]c3ccccc32)CC1)c1ccc(F)cc1"
result = "> 100 µM"

[[record]]
compound = "Nc1nc(Cl)cc(NCCO)n1"
result = "> 100 µM"

